tested on: K-562 leukemia; test: NCI tumour cell line growth inhibition, 48 h; in the data active = GI50 below about 0.43 µM; inactive = the rest
Outcomes: active, inactive

- COMPOUND: "COc1ccc(Cn2cc3c(c2-c2cc(OC)c(OC)c(OC)c2)CCc2cnoc2-3)cc1[N+](=O)[O-]"
  EXPERIMENTAL TARGET: "K-562 leukemia"
  CLASS LABEL: "active"
- COMPOUND: "CS(=O)(=O)CCNCc1ccc(-c2ccc3ncnc(Nc4ccc(OCc5ccccc5)c(Cl)c4)c3c2)o1"
  EXPERIMENTAL TARGET: "K-562 leukemia"
  CLASS LABEL: "inactive"
- COMPOUND: "CCN1C(=O)N(c2ccccc2)C2NN=c3s/c(=C4\\C(=O)N(C(C)C)c5ccccc54)c(=O)n3C21 (centres undefined)"
  EXPERIMENTAL TARGET: "K-562 leukemia"
  CLASS LABEL: "inactive"
- COMPOUND: "CCCCCCCC(=O)SCC/C=C/[C@@H]1CC(=O)NCc2nc(co2)C2=N[C@@](C)(CS2)C(=O)N[C@@H](C(C)C)C(=O)O1"
  EXPERIMENTAL TARGET: "K-562 leukemia"
  CLASS LABEL: "active"

* * *

Each entry below carries its reported TGI.
test system: NCI-H460 lung; assay: NCI tumour cell line growth inhibition, 48 h
REPORTED METRIC: TGI (µM)

- COMPOUND: "Cc1cc(NS(=O)(=O)c2ccc(Nc3c4ccccc4nc4ccc(C(=O)Nc5ccc(S(N)(=O)=O)cc5)cc34)cc2)no1"
  RELATION OPERATOR: ">"
  REPORTED RESULT: 100
- COMPOUND: "COc1ccc(C2SC(C)C(=O)N2c2nc(-c3nc(-c4ccc(Cl)cc4)cs3)cs2)cc1 (stereo not given)"
  RELATION OPERATOR: ">"
  REPORTED RESULT: 100
- COMPOUND: "COC(=O)c1ccccc1/C=C1\\Cc2cc(C)c(C)cc2C1=O"
  RELATION OPERATOR: ">"
  REPORTED RESULT: 100
- COMPOUND: "CC(=O)[O-].O=C([CH-]C(=O)c1ccccc1)c1ccccc1.O=C([CH-]C(=O)c1ccccc1)c1ccccc1.[Y+3]"
  RELATION OPERATOR: "="
  REPORTED RESULT: 18.4
- COMPOUND: "O=C(OCc1ccc2c(Cl)cc(Cl)c(O)c2n1)c1cc2ccccc2[nH]1"
  RELATION OPERATOR: "="
  REPORTED RESULT: 3.52

* * *

Each entry below carries its reported GI50.
test system: TK-10 renal; test: NCI tumour cell line growth inhibition, 48 h

- MOLECULE: "CCOC(=O)c1cc2c(n1Cc1ccccc1)-c1oncc1CC2"
  GI50: "14.4 µM"
- MOLECULE: "CCOC(=O)Nc1ccc(-c2nc(-c3cccc(OC)c3)c(-c3ccnc(Br)c3)[nH]2)cc1"
  GI50: "3.88 µM"
- MOLECULE: "CNCCCNc1nc2ccccc2c2c(=O)c3cc(Cl)ccc3sc12"
  GI50: "1.99 µM"
- MOLECULE: "COc1ccc(-c2c(-c3cc(OC)c4c(c3)OCO4)noc2N)cc1"
  GI50: "10.4 µM"
- MOLECULE: "Cc1ccc(S(=O)(=O)Cc2nc(-c3ccc(C(=O)NCc4cccnc4)cc3)oc2C)cc1"
  GI50: "> 67.8 µM"
- MOLECULE: "CCCCCCCCCCCCOC1C(CNC(=O)C2OC3OC(C)(C)OC3C2NC(=O)CN2CCCCCC2)OC2OC(C)(C)OC21 (configuration not stated)"
  GI50: "8.27 µM"
- MOLECULE: "O=C(OCc1ccc2c(Cl)cc(Cl)c(O)c2n1)c1cc2ccccc2[nH]1"
  GI50: "0.553 µM"

* * *

tested on: T-47D breast; test: NCI tumour cell line growth inhibition, 48 h
Each entry below carries its reported TGI.

- COMPOUND: "CN(C[C@@H]1COCCO1)S(=O)(=O)Nc1ccc2ccc3ncc(-c4cnn(C)c4)cc3c(=O)c2c1"
  TGI: "> 100 µM"
- COMPOUND: "NC(=O)NC(=O)c1cccc(NC(=O)CBr)c1"
  TGI: "3.7 µM"
- COMPOUND: "C[C@]12[C@@H]3CC[C@H]1[C@@H](OC(=O)Nc1cc([N+](=O)[O-])cc([N+](=O)[O-])c1)C(=O)N2CC3"
  TGI: "> 100 µM"
- COMPOUND: "CC1(C)CC(=O)c2c(nc(SSc3nc4c(c(-c5ccccc5)c3C#N)C(=O)CC(C)(C)C4)c(C#N)c2-c2ccccc2)C1"
  TGI: "> 10 µM"
- COMPOUND: "COc1cc(/C=C/c2cc(/C=C/c3ccc(O)c(OC)c3)oc(=O)c2)ccc1O"
  TGI: "4.86 µM"
- COMPOUND: "CCCCC(=O)Oc1ccc2c(C)cc(=O)oc2c1"
  TGI: "> 100 µM"
- COMPOUND: "CC(=O)OC1CC[C@]2(C)C3CC[C@@]4(C)C(CCC4[C@H](C)CCCC(C)C)[C@@H]3CCC2(Br)C1 (stereo not given in full)"
  TGI: "> 50 µM"
- COMPOUND: "COc1cc2c(cc1OC)C(N)CC2=O (stereo not given)"
  TGI: "> 100 µM"
- COMPOUND: "O=C1/C(=C/c2ccco2)N=C(c2ccccc2)N1c1cc2cc(Sc3ccccc3)ccc2[nH]1"
  TGI: "> 25 µM"
- COMPOUND: "OC1CN2Cc3cc4c(cc3[C@]13C=C[C@@H](O)CC23)OCO4 (stereo not given in full)"
  TGI: "31.2 µM"

* * *

tested on: SR leukemia; assay: NCI tumour cell line growth inhibition, 48 h; in the data active means GI50 below about 0.43 µM; inactive means the rest
Outcomes: Y = active, N = inactive

- SMILES TEXT: "CCCCCCCC(=O)SCC/C=C/[C@@H]1CC(=O)NCc2nc(co2)C2=N[C@@](C)(CS2)C(=O)N[C@@H](C(C)C)C(=O)O1"
  CLASS LABEL: "Y"
- SMILES TEXT: "O=C(Oc1ccccc1Cl)c1ccccc1Nc1ccnc(C(F)(F)F)c1"
  CLASS LABEL: "Y"
- SMILES TEXT: "Cc1ccc(S(=O)(=O)Cc2nc(-c3ccc(C(=O)NCc4cccnc4)cc3)oc2C)cc1"
  CLASS LABEL: "N"
- SMILES TEXT: "CCOC(=O)Nc1ccc(-c2nc(-c3cccc(OC)c3)c(-c3ccnc(Br)c3)[nH]2)cc1"
  CLASS LABEL: "N"
- SMILES TEXT: "COc1cc2cc(c1Cl)N(C)C(=O)C[C@H](OC(=O)[C@H](C)N(C)C(C)=O)[C@]1(C)O[C@H]1[C@H](C)[C@@H]1C[C@@](O)(NC(=O)O1)[C@H](OC)C=C/C=C(\\C)C2"
  CLASS LABEL: "Y"
- SMILES TEXT: "COc1cc2nc3cc([N+](=O)[O-])ccc3c(NCCCNCC(C)(C)O)c2cc1OC"
  CLASS LABEL: "Y"
- SMILES TEXT: "CN(C[C@@H]1COCCO1)S(=O)(=O)Nc1ccc2ccc3ncc(-c4cnn(C)c4)cc3c(=O)c2c1"
  CLASS LABEL: "N"

* * *

Each entry below carries its reported TGI.
tested on: RXF 393 renal; test: NCI tumour cell line growth inhibition, 48 h
REPORTED METRIC: TGI

- COMPOUND: "O=C1NC(N2CCCC(CO)C2)=N/C1=C\\c1ccc(Cl)cc1 (stereo not drawn)"
  EXPERIMENTAL TARGET: "RXF 393 renal"
  REPORTED RESULT: "> 100 µM"
- COMPOUND: "N#CC1(C=O)c2ccccc2C=CN1C(=O)c1ccccc1 (stereo not drawn)"
  EXPERIMENTAL TARGET: "RXF 393 renal"
  REPORTED RESULT: "53.8 µM"
- COMPOUND: "Cc1cc(C)c(S(=O)(=O)ONC(=O)OC(C)(C)C)c(C)c1"
  EXPERIMENTAL TARGET: "RXF 393 renal"
  REPORTED RESULT: "> 100 µM"
- COMPOUND: "CCCCCCCCCCCCOC1C(CNC(=O)C2OC3OC(C)(C)OC3C2NC(=O)CN2CCCCCC2)OC2OC(C)(C)OC21 (stereo not drawn)"
  EXPERIMENTAL TARGET: "RXF 393 renal"
  REPORTED RESULT: "8.6 µM"
- COMPOUND: "O=C(O)c1oc(C(=O)O)c(C(=O)O)c1C(=O)O"
  EXPERIMENTAL TARGET: "RXF 393 renal"
  REPORTED RESULT: "> 100 µM"
- COMPOUND: "COc1ccc(C2SC(C)C(=O)N2c2nc(-c3nc(-c4ccc(Cl)cc4)cs3)cs2)cc1 (stereo not drawn)"
  EXPERIMENTAL TARGET: "RXF 393 renal"
  REPORTED RESULT: "> 100 µM"
- COMPOUND: "Cn1ncnc1CCc1ccccc1"
  EXPERIMENTAL TARGET: "RXF 393 renal"
  REPORTED RESULT: "> 100 µM"
- COMPOUND: "CN(C)c1n/c(=N/c2ncn[nH]2)ss1"
  EXPERIMENTAL TARGET: "RXF 393 renal"
  REPORTED RESULT: "> 100 µM"
- COMPOUND: "Cc1ccc(S(=O)(=O)Oc2nc3ccccc3nc2N(S(=O)(=O)c2ccc(C)cc2)S(=O)(=O)c2ccc(C)cc2)cc1"
  EXPERIMENTAL TARGET: "RXF 393 renal"
  REPORTED RESULT: "> 100 µM"
- COMPOUND: "CC1OC(OC2C(O)COC(OC3C(C)OC(OC4C(OC(=O)[C@]56CCC(C)(C)C[C@@H]5C5=CCC7[C@@]8(C)C[C@H](O)[C@H](OC9OC(CO)C(O)C(OC%10OC(CO)C(O)C(O)C%10O)C9O)[C@@](C)(CO)[C@@H]8CC[C@@]7(C)[C@]5(C)CC6)OCC(O)C4O)C(O)C3O)C2O)C(O)C(O)C1O (stereo partly drawn)"
  EXPERIMENTAL TARGET: "RXF 393 renal"
  REPORTED RESULT: "27.9 µM"
- COMPOUND: "OC(c1ccccn1)C1CNc2ccccc21 (stereo not drawn)"
  EXPERIMENTAL TARGET: "RXF 393 renal"
  REPORTED RESULT: "> 100 µM"
- COMPOUND: "CN(CCCNC(=O)c1nn(-c2ccc(Cl)cc2Cl)c2c1ccc1ccccc12)CCCNC(=O)c1nn(-c2ccc(Cl)cc2Cl)c2c1ccc1ccccc12"
  EXPERIMENTAL TARGET: "RXF 393 renal"
  REPORTED RESULT: "3.12 µM"
- COMPOUND: "N[C@@H]1CCCN(c2c(/C=C3\\SC(=O)NC3=O)cccc2-c2ccccc2)C1"
  EXPERIMENTAL TARGET: "RXF 393 renal"
  REPORTED RESULT: "20.2 µM"
- COMPOUND: "COc1cc(/C=C2/C(=O)N(C(=O)c3ccc(Cl)cc3)N=C2C)cc(OC)c1OC"
  EXPERIMENTAL TARGET: "RXF 393 renal"
  REPORTED RESULT: "> 100 µM"
- COMPOUND: "OC1CN2Cc3cc4c(cc3[C@]13C=C[C@@H](O)CC23)OCO4 (stereo partly drawn)"
  EXPERIMENTAL TARGET: "RXF 393 renal"
  REPORTED RESULT: "58.6 µM"
- COMPOUND: "Cc1ccc(S(=O)(=O)NC(=O)Nc2ccc(S(N)(=O)=O)cc2S(N)(=O)=O)cc1"
  EXPERIMENTAL TARGET: "RXF 393 renal"
  REPORTED RESULT: "> 100 µM"
- COMPOUND: "C=C1C(=O)O[C@H]2[C@H]1CC/C(COC(=O)c1ccc(C#N)cc1)=C\\CC[C@@]1(C)O[C@@H]21"
  EXPERIMENTAL TARGET: "RXF 393 renal"
  REPORTED RESULT: "2.32 µM"
- COMPOUND: "COC(=O)C(Cc1nc2ccc(Cl)cc2[nH]c1=O)/C(=N/NC(N)=O)C(=O)Nc1ccc(Cl)cc1 (stereo not drawn)"
  EXPERIMENTAL TARGET: "RXF 393 renal"
  REPORTED RESULT: "> 100 µM"

Source of measurements: PubChem BioAssay (NCI)
